Where do these numbers come from? They come from patent US5807875A.

In this section we review reported log10 IC50 values for a set of molecules.
Target: NPY-Y1 receptor (Homo sapiens)
Construct: SK-N-MC cells (expressing the human Y1 -receptor); endogenous in cells
Sequence (P25929 whole entry): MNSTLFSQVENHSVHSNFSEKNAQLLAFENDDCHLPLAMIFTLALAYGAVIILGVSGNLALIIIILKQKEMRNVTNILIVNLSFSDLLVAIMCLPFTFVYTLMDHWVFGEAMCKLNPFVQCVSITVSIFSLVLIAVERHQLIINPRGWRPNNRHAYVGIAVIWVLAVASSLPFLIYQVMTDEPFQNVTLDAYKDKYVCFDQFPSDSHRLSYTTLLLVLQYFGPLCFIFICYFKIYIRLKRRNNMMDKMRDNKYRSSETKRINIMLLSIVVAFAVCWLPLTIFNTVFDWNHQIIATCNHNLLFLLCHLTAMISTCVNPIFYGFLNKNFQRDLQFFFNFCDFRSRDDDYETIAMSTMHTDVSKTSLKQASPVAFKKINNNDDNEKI
Assay: Studies of binding with SK-N-MC cells (displacement of [^125 I]-Bolton-Hunter-NPY)
Details: SK-N-MC cells expressing the human Y1-receptor, 3 hours at ambient temperature
Description: A. Studies of binding with SK-N-MC cells (expressing the human Y1 -receptor) Incubation is ended by centrifuging (10 minutes at 3000×gand 4° C.). After washing once with PBS, the radioactivity of the pellet is measured in a gamma counter. […] The proportion of non-specific binding is defined as that radioactivity which is bound in the presence of 1 μM NPY. The IC50 values of the unlabelled test substances are determined graphically.
Measured Attribute: log10 IC50 (log10 of the value in nM)

Molecule: O=C(Nc1ccc2ccccc2c1)NC(CCCNc1ncc[nH]1)C(=O)NCc1ccc(O)cc1 (stereo not drawn)
Measured Attribute: log10 IC50
Reported: 1.93
//
Molecule: O=C(NC(CCCNc1ncc[nH]1)C(=O)NCc1ccc(O)cc1)c1ccc2ccccc2c1 (stereo not drawn)
Measured Attribute: log10 IC50
Reported: 1.91
//
Molecule: Cc1cc(CNC(=O)C(CCCNC(=N)N)NC(=O)C(c2ccccc2)c2ccccc2)ccc1O (stereo not drawn)
Measured Attribute: log10 IC50
Reported: 1.00
//
Molecule: O=C(NCc1ccc(O)cc1)C(CCCNc1ncc[nH]1)NC(=O)C(c1ccccc1)c1ccccc1 (stereo not drawn)
Measured Attribute: log10 IC50
Reported: 1.26
//
Molecule: O=C(NCc1ccc(O)cc1)C(Cc1ccc(C2=NCCN2)cc1)NC(=O)C(c1ccccc1)c1ccccc1 (stereo not drawn)
Measured Attribute: log10 IC50
Reported: 2.32
//
Molecule: Cc1cc(CNC(=O)C(CCCNC(=N)N)NC(=O)C(c2ccccc2)c2ccccc2)cc(C)c1O (stereo not drawn)
Measured Attribute: log10 IC50
Reported: 1.41
